B1: tRNA (parent)
chain: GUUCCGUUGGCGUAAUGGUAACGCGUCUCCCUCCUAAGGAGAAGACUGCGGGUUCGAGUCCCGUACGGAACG

Variants of: B1
Assay: yeast fitness relative to wild type (ratio to wild type); higher = fitter; tRNA-Arg(CCU), competitive growth, 37 C, YPD
Variants at the floor of the assay were thinned out.
Reported yeast fitness is given for each of the following variants.

- Macromolecule sequence: "GUUACGUCGGCGUAAUGGUAACGGGUCUCCCUCCUAAGGAGAACACUGCGGGUUCGAGUCCCGUACGUAACG [C4A U8C C24G G44C G68U]"
  Relation qualifier: "≤"
  yeast fitness: 0.5
- Macromolecule sequence: "GUUCCGUUGACGUAAUGGUAACGCGUGGCCCUCUUAAGGAGAAGAGUGCGGGUUCGAGUCCCGUACAGAACG [G10A C27G U28G C34U C46G G67A]"
  Relation qualifier: "≤"
  yeast fitness: 0.5
- Macromolecule sequence: "GAUCCGUUGGCGUAAUGGAAACGCGUCUCCCUCCUAAGGAGAAAACUGCGGGUUCGAGUCCCGUACGGAACG [U2A U19A G44A]"
  Relation qualifier: "="
  yeast fitness: 0.544
- Macromolecule sequence: "GUUCCGUUGGCGUAAUGGUAAUGCGUCUCCCUCAUAAGGAGAAGACUGCGGGUUCCUGUCCCGUACGGAACG [C22U C34A G56C A57U]"
  Relation qualifier: "≤"
  yeast fitness: 0.5
- Macromolecule sequence: "GUUCCGUUGGCGAGAUGGUAACGCGUCUCCCUCCUAAGGAGAAGACUGCGGGUUCGAGUCCCGUAUGCAACG [U13A A14G C66U G68C]"
  Relation qualifier: "≤"
  yeast fitness: 0.5
- Macromolecule sequence: "GUUCCAUUGGCGUACUGGUUACGCGUCUCCCUCCUAAGGAGAAGACUGCGGGUUCGUGUCCCGUACGGAACG [G6A A15C A20U A57U]"
  Relation qualifier: "≤"
  yeast fitness: 0.5
- Macromolecule sequence: "GAUCCGUUGGCGUAAGGGUAACGCGUCUCCCUCCUAAGGAGAAGACUGGGGGUUCGAGUCCCGUACGGAACG [U2A U16G C49G]"
  Relation qualifier: "="
  yeast fitness: 0.705
- Macromolecule sequence: "GUUCCGUUGGCGUAAUGGUAACGCCUCUCCGUCCUAAGGAGAAGACUGCGCGUUCGAGUCCCGUUCGGAACG [G25C C31G G51C A65U]"
  Relation qualifier: "≤"
  yeast fitness: 0.5
- Macromolecule sequence: "GUUCUGCUGGCGGAAUGGUAACGCGUCUCCCUCCUCAGGAGAAGAUUGCGGGUUCGAGUCCCGUACGGAACG [C5U U7C U13G A36C C46U]"
  Relation qualifier: "="
  yeast fitness: 0.757
- Macromolecule sequence: "GUUACGUUGGCGUAAUGGUAACGCGUUGCCCUGCUGAGGAGAAGACUGCGGGUUCGAGUCCCGUACGGAACG [C4A C27U U28G C33G A36G]"
  Relation qualifier: "="
  yeast fitness: 0.533
- Macromolecule sequence: "GUUCCGUUGGCGUAAUCGUAACGCGUCUCCCUCCUAAGGAGAAGACUGCCGGUUCGAGUCCCGUACGGAACG [G17C G50C]"
  Relation qualifier: "="
  yeast fitness: 0.536
- Macromolecule sequence: "GUUCCGUUGGCGUAAUGGUAACGCGUCUUUCUCCUAAGGAGAAGACUGGGGGUUCGAGUCCCGUACGGAACG [C29U C30U C49G]"
  Relation qualifier: "="
  yeast fitness: 0.731
- Macromolecule sequence: "GUCCCGUUGGCGUAAUGGUAACGUGUCUCCCUCCUAAGGAGAAGACUGCGGGUUCGAGUCCCGUACGGAACG [U3C C24U]"
  Relation qualifier: "="
  yeast fitness: 1.01
- Macromolecule sequence: "GUUCCGUUGGCGUAAUGCUAACGCGUCUCCCUCCUAAGGAGAAGACUGCAGGUUCGAGUCCAGUACGGAACG [G18C G50A C62A]"
  Relation qualifier: "≤"
  yeast fitness: 0.5
- Macromolecule sequence: "GUUCCGUUGGCGUAAUGGUAACGCGUCUCCCUCCUGAGGAGAAGACUGCGGGCUCGAGUCCCGUACGGAACG [A36G U53C]"
  Relation qualifier: "="
  yeast fitness: 0.724
- Macromolecule sequence: "GUUCCGUUGCCGUAAUGGUAACGCGUCUCCCUCCUAAGGAGAAGCAUGCGGGUUCGAGUCCCGUAUGGAACG [G10C A45C C46A C66U]"
  Relation qualifier: "="
  yeast fitness: 0.643
- Macromolecule sequence: "GUUCCGUUGGCGUAAUGAUAACGCGUCUCCCUGCUAAGGAGAAGACUGCGGGAUCGAGUCCCGUACGGAACG [G18A C33G U53A]"
  Relation qualifier: "≤"
  yeast fitness: 0.5
- Macromolecule sequence: "GUUCCGUUGGCGUAAUGGUAGCGCGUCUCCCUCCUAGGGAGAAGACUGCGGGUUCGAGUCCCGUACGGAACG [A21G A37G]"
  Relation qualifier: "="
  yeast fitness: 0.692
- Macromolecule sequence: "GUUCCGUUGGCGUAAUGGAAACGCGUCUCCCUCCUAAGGAGAAGACUGUGGGUUCGAGUCCCGUACGGAACG [U19A C49U]"
  Relation qualifier: "="
  yeast fitness: 1.03
- Macromolecule sequence: "GUUUCGUUGGCGUAAUGGUAACGCGUCUCCCUCCCAAGGAGAAGGCUGGGGGUUCAAGUCCCGUCCGGAACG [C4U U35C A45G C49G G56A A65C]"
  Relation qualifier: "≤"
  yeast fitness: 0.5
- Macromolecule sequence: "GUUCCGUUGGCGUAAUGGUAACGCGUCUCCCUCCUAAGGAGAAGACUGCGGGUUCGAGUCGUGUACGGAACG [C61G C62U]"
  Relation qualifier: "="
  yeast fitness: 0.613
- Macromolecule sequence: "GUUCCGUUGGCGUAAUGGUAGCACGUCUCCCUCCUAAGGAGAAGCCUGCGGAUUCGAGUCCCGUACGGAACG [A21G G23A A45C G52A]"
  Relation qualifier: "="
  yeast fitness: 0.517
